- Test system: NCI-H522 lung
- assay.details: NCI tumour cell line growth inhibition, 48 h
Parameter TGI: see the listing below.

compound	result
CCOC(=O)c1cc(-c2ccn(C(C)=O)c2)c(-c2cc(C)co2)[nH]1	> 100 µM

Exercise: # query: TGI of entry "Cc1ccc(S(=O)(=O)c2ccsc2N)cc1"
Key: > 100 µM

Exercise: Now give it for C[C@H]1CCC/C=C/[C@@H]2C[C@H](O)C[C@H]2[C@H](O)[C@@H](SC2OC(CO)C(O)C(O)C2O)CC(=O)O1 (stereo partly specified) too.
Key: > 100 µM

Exercise: Now give it for "CCOC(=O)/C(C#N)=C(N)/C(=N\Nc1cccc(C(F)(F)F)c1)C(=O)OCC" too.
Key: > 100 µM

Exercise: Now give it for "COc1ccc(S(=O)(=O)n2c3ccccc3n3ncc(-c4nnc(C)o4)c23)cc1" too.
Key: > 73.6 µM

Exercise: Now give it for CC(C)(O)CCC(O)C(C)(O)C1CCC2(O)C3=CC(=O)C4(O)CC(O)C(O)CC4(C)C3CCC12C (stereo unspecified) (tested in a mixture with another compound) too.
Key: > 100 µM

These entries and their values trace back to PubChem BioAssay (NCI).
